# credit: patent US20210388105A1

assayedTarget: T1, cynomolgus CD39 (full length, on CHOK1-cynoCD39 cells) (cynomolgus monkey, UniProt A0A7N9DGH8 1-510)
T1 construct: whole, on cells; also called cCD39
T1 sequence: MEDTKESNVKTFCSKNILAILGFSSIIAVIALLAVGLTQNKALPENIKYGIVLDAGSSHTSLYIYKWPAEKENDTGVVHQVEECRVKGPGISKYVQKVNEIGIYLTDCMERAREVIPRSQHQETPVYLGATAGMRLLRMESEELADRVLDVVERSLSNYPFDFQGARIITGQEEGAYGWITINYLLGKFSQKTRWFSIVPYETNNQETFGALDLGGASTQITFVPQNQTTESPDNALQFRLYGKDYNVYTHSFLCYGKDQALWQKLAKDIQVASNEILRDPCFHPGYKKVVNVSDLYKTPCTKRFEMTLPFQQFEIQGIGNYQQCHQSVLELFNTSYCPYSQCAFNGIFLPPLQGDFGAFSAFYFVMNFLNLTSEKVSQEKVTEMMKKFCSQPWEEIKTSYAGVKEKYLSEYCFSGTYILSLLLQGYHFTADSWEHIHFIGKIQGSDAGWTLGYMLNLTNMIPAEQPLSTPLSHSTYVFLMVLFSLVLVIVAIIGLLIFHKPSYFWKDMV
methodNotes: FACS, CHOK1-cynoCD39 cells
Record form. Attribute: pEC50. Fill in for each entry.
Give bare numbers, as −log10 of the molar value.

Use these answered entries as a reference point.
Problem: For the binder mAb35 (antibody, V domains shown, mouse hybridoma antibody) VH: EVRLQQSGAELVKPGASVKLSCTASGFNIEDTYVHWMKQRPEQGLEWIGRIDPAIDNSKYDPKFQGKATITAVSSSNTAYLQLSSLTSEDTAVYYCALYDGYNVYAMDYWGQGTSVTVSS VL: DIVMTQAAFSNPVTLGTSASISCRSSKNLLHSNGITYLYWYLQRPGQSPQLLIYRASTLASGVPNRFSGSESGTDFTLRISRVEAEDVGVYYCAQLLELPHTFGGGTKLEIK , what pEC50 is on record?
Result: 8.28

Problem: For the binder mAb23 (antibody, V domains shown, mouse hybridoma antibody) VH: EVQLQQSGAELLRPGASVKLSCTASGYNLKDTFLHWVKQRPEQGLEWIGRIDPANGNIKYDPKFQGKATLTADTSSNTAYLQLISLTSEDTAVYYCANSPYYYGSGYRIFDVWGAGTTVTVSS VL: QIVLTQSPAIMSASPGEKVTITCSAFSSVNYMHWYQQKPGTSPKLLIYTTSNLASGVPTRFSGSGSGTSYSLTISRMEAEDAATYYCQQRSTYPFTFGSGTKLEIQ , what pEC50 is on record?
Result: 8.64

Consider the record given below.
Problem: For the binder mAb13 (antibody, V domains shown, mouse hybridoma antibody) VH: QIQLVQSGPELKKPGETVKISCKASGYTFTNYGMNWVKQAPGKGLRWMGLINTYTGEPTYADDFKDRFAFSLETSASTAFLQINNLKDEDMATYFCARKGIYYDYVWFFDVWGAGTTVTVSS VL: DIQMTQSPSSLSTSLGGKVSITCKASQDINRYIAWYQHKPGKGPRLLIHYTSTLLPGIPSRFSGSGSGRDYSFSISNLEPEDIATYFCLQYSNLLTFGGGTKLEIK , what pEC50 is on record?
Result: 7.68
